Source of measurements: the supplement of paper PMC10567573

B1: SOAT1 (parent)
chain: KSAAMLAVFAVSAVVHEYALAVCL

Variants of: B1
TEST SUMMARY: protein stability index of a GFP-peptide fusion (GPS, HEK-293T) (PSI 1-6); higher = more stable;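 note: lentivirally expressed fusions sorted by FACS into six bins by GFP to DsRed ratio, PSI derived from sequencing read proportions per bin multiplied by bin number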
STATED CONDITIONS: c terminus: a fixed tail appended
MEASURED METRIC: protein stability index
One number for each entry.

* KSAAMLAVFAQSAVVHEYALAVCL [V11Q] | 3.03

Your task in this section: give protein stability index for each listed record.
1. KSAAMLAVFAVSWVVHEYALAVCL [A13W]
2. KSAAGLAVFAVSAVVHEYALAVCL [M5G]
3. KSAAMLAVFAVSAVVHEYALAVCT [L24T]
4. KSAAMLAVRAVSAVVHEYALAVCL [F9R]
5. KSAAPLAVFAVSAVVHEYALAVCL [M5P]
6. KSAAMLAVFAVSAVVHEWALAVCL [Y18W]
7. CSAAMLAVFAVSAVVHEYALAVCL [K1C]

3.01
3.1
5.26
2.15
3.6
3.5
1.84
